# MEASURED ON: Sigma non-opioid intracellular receptor 1 (Homo sapiens)
# Sequence (Q99720 whole entry): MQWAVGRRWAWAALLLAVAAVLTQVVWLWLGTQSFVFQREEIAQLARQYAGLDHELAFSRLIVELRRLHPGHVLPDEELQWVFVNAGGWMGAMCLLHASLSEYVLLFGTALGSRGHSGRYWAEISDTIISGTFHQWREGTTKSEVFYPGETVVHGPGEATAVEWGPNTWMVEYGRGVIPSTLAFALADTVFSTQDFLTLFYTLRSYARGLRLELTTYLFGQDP
# PROCEDURE SUMMARY: Binding affinity to sigma-1 receptor (unknown origin)
MEASUREMENT NAME: pKi
// returns pKi (minus log10 of molar concentration), number only

Data request: Give recorded pKi with Sigma non-opioid intracellular receptor 1 (Homo sapiens) for the following molecule: Cn1ncc2c1CCCC2CCN1CCC(c2ccccc2)CC1 (stereo unspecified)
Data returned: 8.15

----------
# MEASURED ON: Sigma non-opioid intracellular receptor 1 (Cavia porcellus, UniProt Q60492)
# Sequence (Q60492 whole entry): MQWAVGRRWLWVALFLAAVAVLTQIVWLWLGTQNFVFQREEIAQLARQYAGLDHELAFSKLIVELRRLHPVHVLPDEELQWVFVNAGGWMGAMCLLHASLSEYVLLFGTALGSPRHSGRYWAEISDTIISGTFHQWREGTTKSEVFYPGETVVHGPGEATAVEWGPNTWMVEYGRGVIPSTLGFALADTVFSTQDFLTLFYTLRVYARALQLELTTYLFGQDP
# PROCEDURE SUMMARY: Displacement of (+)-pentazocine from sigma-1 receptor in guinea pig brain cortex membrane after 120 mins by scintillation counting
# Format: cell membranes
MEASUREMENT NAME: Ki (nM)
Give just the numeric value; nM need not be written.

>  <COMPOUND>
c1ccc(CCCNCCC2CCCc3sccc32)cc1 (centres undefined)

>  <MEASURED ON>
Sigma non-opioid intracellular receptor 1 (Cavia porcellus, UniProt Q60492)

>  <MEASUREMENT NAME>
Ki

>  <REPORTED VALUE>
132

$$$$

Data request: Looking for the measured Ki of c1ccc(CNCCC2CCCc3sccc32)cc1 (centres undefined) , can you help?
Data returned: 49

Data request: Let us now turn to c1cc2c(s1)CCCC2CCNCC1CCCCC1 (centres undefined)
Data returned: 5

Data request: Let us now turn to c1ccc(CCNCCC2CCCc3sccc32)cc1 (centres undefined)
Data returned: 126

----------
# PROCEDURE SUMMARY: Binding affinity to sigma-2 receptor (unknown origin)
# Design: species or system Homo sapiens
MEASUREMENT NAME: pKi
// returns pKi (minus log10 of molar concentration), number only

Data request: Looking for the measured pKi of Cn1ncc2c1CCCC2CCN1CCC(c2ccccc2)CC1 (stereo unspecified) , can you help?
Data returned: 7.40

----------
# PROCEDURE SUMMARY: Selectivity ratio of Ki for sigma-2 receptor in rat liver membrane to Ki for sigma-1 receptor in guinea pig brain cortex membrane
# Type: cell membranes
Parameter Ratio Ki: see the listing below.
When you answer, write just the number.

Known Ratio Ki results, listed for orientation:
>  <MOLECULE>
c1ccc(CCNCCC2CCCc3sccc32)cc1 (centres undefined)

>  <Ratio Ki>
1

$$$$
>  <MOLECULE>
c1cc2c(s1)CCCC2CCNCC1CCCCC1 (centres undefined)

>  <Ratio Ki>
2

$$$$

Data request: Looking for the measured Ratio Ki of c1ccc(CNCCC2CCCc3sccc32)cc1 (centres undefined) , can you help?
Data returned: 3

Data request: Let us now turn to c1ccc(CCCNCCC2CCCc3sccc32)cc1 (centres undefined)
Data returned: 1
